Data provenance is PubChem BioAssay AID1259421.

test: T. gondii ME49Luc in HeLa cells, luciferase assay, 72 h, no IFN-y (AID 1259421); details: hits give low values, concentration not given here
Out of some 6,400 compounds screened, about 610 (9.5%) were called active. This is one part of a sample in which actives are shown more often than they occur.
Item-by-item account of activity change, negative = inhibition
Value expressed in %; do not type the unit.

The following compounds have reported results that may help.
N#C/C(=C(/N)Sc1ccc(N)cc1)c1ccccc1C(F)(F)F
7.26
Ic1cc(-c2ccccc2)ncn1
1.75
CN1CCC(Nc2ncc3ncnc(Nc4ccc(F)c(Cl)c4)c3n2)CC1
7.3

So what does the record say about activity change, negative = inhibition for CCCCCCCCCCCCCCCC(=O)OC1C(SC)OC(C(NC(=O)C2CC(CCC)CN2C)C(C)Cl)C(O)C1O (centres undefined) ?
-9.26

Also, Nc1nc(=S)c2ncn([C@@H]3O[C@H](CO)[C@@H](O)[C@H]3O)c2[nH]1 please.
-79.5

Also, Nc1ncnc2c1ncn2[C@@H]1O[C@H](CO)[C@@H](O)[C@H]1O please.
6.4

Also, CCC[C@@]1(CCc2ccccc2)CC(=O)C([C@H](CC)c2cccc(NS(=O)(=O)c3ccc(C(F)(F)F)cn3)c2)C(=O)O1 (some centres undefined) please.
10.4

Also, Cn1c(COc2ccc(CC3SC(=O)NC3=O)cc2)nc2ccccc2c1=O (centres undefined) please.
-40.6

Also, N[C@@H](CCC(=O)N[C@@H](CS[NH2+][O-])C(=O)NCC(=O)O)C(=O)O please.
15.6

Also, Cc1ncc(-c2ccnc(Nc3ccc(S(C)(=O)=O)cc3)n2)n1C(C)C please.
-84.5

Also, Nc1ncnc2c1c(-c1cccc(OCc3ccccc3)c1)cn2C1CC(CN2CCCC2)C1 (centres undefined) please.
-69.4

Also, O=C(CCCCCCC(=O)Nc1cccnc1)NO please.
-92.1

Also, N#Cc1c(N)nc(SCc2csc(-c3ccc(Cl)cc3)n2)c(C#N)c1-c1ccc(OCCO)cc1 please.
-62.2

Also, CN(CCOc1ccc(CC(Nc2ccccc2C(=O)c2ccccc2)C(=O)O)cc1)c1ccccn1 (centres undefined) please.
1.37

Also, CCC(CC)C(c1ccc(Nc2nc3ccccc3s2)cc1)n1cncn1 (centres undefined) please.
4.5

Also, Nc1cc2ncnc(Nc3cccc(Br)c3)c2cc1N please.
4.16

Also, COc1ccc(-c2cc(=O)c3c(O)c(OC)c(O[C@H]4O[C@H](CO[C@@H]5O[C@@H](C)[C@H](O)[C@@H](O)[C@H]5O)[C@@H](O)[C@H](O)[C@H]4O)cc3o2)cc1 please.
15.1

Also, NC(Cn1ccc(=O)n(Cc2ccccc2C(=O)O)c1=O)C(=O)O (centres undefined) please.
7.15
